The following compounds are shown together with reported TGI values.
Test system: NCI-H23 lung
PROTOCOL_DETAILS: NCI tumour cell line growth inhibition, 48 h
Answer format: numeric, µM implied, no suffix.

C[CH2][Sn]([Cl])([Cl])[CH2]C | 41.4

Lab note: O=C1NC(=NC2CCCCC2)C2(CCN(CCCC3(c4ccc(F)cc4)OCCO3)CC2)N1c1ccccc1 gave TGI of 34.3

TGI reading for COCCNC(=O)c1ccc(-c2nc3ccc4[nH]ncc4c3c3c2CCCC3)cc1 : 31.1

TGI in this record for CN(C)CCNC(=O)c1cc2c3ccccc3[nH]c2c2ncccc12 : 32.6

For this compound ( O=C(CCCCCCC(=O)Nc1ccc2c(c1)/C(=C/c1ccc[nH]1)C(=O)N2)NO ), measured TGI is 14.8
